Every entry's value here was drawn from patent US12552800B2.

Here, each record is paired with measured Competition at 1 μM (%) data.
Target: PD brain-derived a-syn aggregates (Homo sapiens)
Construct: from tissue; host or cells: human PD donor brain, sarkosyl-insoluble 100,000 x g pellet
Test: Micro-radiobinding competition assay against Example-1 [^3H-1] (Table 8)
Format: binding
Conditions: 1 μM non-radiolabelled example compound vs Example-1 [^3H-1] ligand; human PD brain-derived a-syn aggregates
The answer is to be given in %; state only the numeric part.

A selection of reference data follows.
The reported Competition at 1 μM (%) of the molecule Cc1c2c(nn1-c1ccc(N3CCCC3)nc1)CN(c1cccc(F)n1)C2=O was 68

The reported Competition at 1 μM (%) of the molecule O=C1c2cn(-c3ccc(NC4CC(F)C4)nc3)nc2CN1c1ccncc1 (centres unmarked) was 51

The reported Competition at 1 μM (%) of the molecule COc1cc(N2Cc3nn(-c4ccc(N5CC[C@@H](F)C5)nc4)cc3C2=O)ccn1 was 100

The reported Competition at 1 μM (%) of the molecule Cc1c2c(nn1-c1ccc(N3CC[C@H](F)C3)nc1)CN(c1ccccn1)C2=O was 66

The reported Competition at 1 μM (%) of the molecule O=C1c2cn(-c3ccc(N4CC[C@@H](F)C4)nc3)nc2CN1c1ccncc1 was 98

Others:
The reported Competition at 1 μM (%) of the molecule O=C1c2cn(-c3ccc(N4CC[C@H](F)C4)nc3)nc2CN1c1cccc(O)c1 was 103

The reported Competition at 1 μM (%) of the molecule O=C1c2cn(-c3ccc(N4CC[C@@H](F)C4)nc3)nc2CN1c1ccc(O)nc1 was 90

The reported Competition at 1 μM (%) of the molecule N#Cc1ccc(N2Cc3nn(-c4ccc(N5CCCC5)nc4)cc3C2=O)cc1F was 38

###

Target: pathological a-synuclein aggregates (Homo sapiens, UniProt P37840)
Assay: Autoradiography of Example-1 [^3H-1] in brain sections from PD, PDD and NDC donors
Format: binding
Conditions: PDD and genetic PD tissue, range of both; read-out: dissociation constant (Kd)
pKd: −log10 of the molar value.
MEASUREMENT_LABEL: pKd

The reported pKd of the compound [3H]c1cncc(N2Cc3nn(-c4cnc(N5CC[C@@H](F)C5)c([3H])c4)cc3C2=O)c1 [Example-1 [^3H-1]] was 7.89 to 7.96

###

Here, each record is paired with measured Competition at 100 nM (%) data.
Molecular target: PD brain-derived a-syn aggregates (Homo sapiens)
Construct: from tissue; host or cells: human PD donor brain, sarkosyl-insoluble 100,000 x g pellet
Assay: Micro-radiobinding competition assay against Example-1 [^3H-1] (Table 8)
Type: binding
Conditions: 100 nM non-radiolabelled example compound vs Example-1 [^3H-1] ligand; human PD brain-derived a-syn aggregates
The answer is to be given in %; state only the numeric part.

A selection of reference data follows.
The reported Competition at 100 nM (%) of the compound Cn1ccc(-n2cc3c(n2)CN(c2cncc(F)n2)C3=O)n1 was 77

The reported Competition at 100 nM (%) of the compound O=C1c2cn(-c3ccc(N4CC(F)C4)nc3)nc2CN1c1cccnc1 was 42

The reported Competition at 100 nM (%) of the compound COc1ccccc1N1Cc2nn(-c3ccc(N4CC[C@H](F)C4)nc3)cc2C1=O was 37

The reported Competition at 100 nM (%) of the compound O=C1c2cn(-c3ccc(N4CC[C@@H](F)C4)cc3)nc2CN1c1cccnc1 was 72

The reported Competition at 100 nM (%) of the compound O=C1c2cn(-c3ccc(N4CCOCC4)nc3)nc2CN1c1cnc(F)cn1 was 92

Others:
The reported Competition at 100 nM (%) of the compound O=C1c2cn(-c3ccc(N4CC[C@@H](F)C4)nc3)nc2CN1c1ccns1 was 80

The reported Competition at 100 nM (%) of the compound O=C1c2cn(-c3ccc(N4CC[C@H](F)C4)nc3)nc2CN1c1ccc(O)cc1 was 80

The reported Competition at 100 nM (%) of the compound N#Cc1cccc(N2Cc3nn(-c4ccc(N5CC[C@@H](F)C5)nc4)cc3C2=O)c1 was 71

The reported Competition at 100 nM (%) of the compound N#Cc1cccc(N2Cc3nn(-c4ccc(N5CC[C@H](F)C5)nc4)cc3C2=O)n1 was 14

The reported Competition at 100 nM (%) of the compound N#Cc1ccc(-n2cc3c(n2)CN(c2cccc(F)n2)C3=O)cn1 was 80

The reported Competition at 100 nM (%) of the compound N#Cc1cccc(N2Cc3nn(-c4ccc(N5CC[C@@H](F)C5)nc4)cc3C2=O)n1 was 74

The reported Competition at 100 nM (%) of the compound COc1cccc(N2Cc3nn(-c4ccc(N5CC[C@@H](F)C5)nc4)cc3C2=O)c1 was 80

The reported Competition at 100 nM (%) of the compound N#Cc1ccc(N2Cc3nn(-c4ccc(N5CC[C@H](F)C5)nc4)cc3C2=O)nc1 was 86

The reported Competition at 100 nM (%) of the compound O=C1c2cn(-c3ccc(N4CC[C@H](F)C4)nc3)nc2CN1c1nccs1 was 75

The reported Competition at 100 nM (%) of the compound Cc1ccc(N2Cc3nn(-c4ccc(N5CC[C@@H](F)C5)nc4)cc3C2=O)cn1 was 58

The reported Competition at 100 nM (%) of the compound O=C1c2cn(-c3ccc(N4CC[C@@H](F)C4)nc3)nc2CN1c1cncc(F)c1 was 44

The reported Competition at 100 nM (%) of the compound O=C1c2cn(-c3ccc(N4CC[C@H](F)C4)nc3)nc2CN1c1cncs1 was 55
